Tested on: S. aureus ATCC 6538
Assay: Determination of the bactericidal activity (logarithmic reduction in organism count)
Format: cell-based, Staphylococcus aureus
Conditions: contact for 30 minutes at a substance concentration of 120 μg/mL
OBSERVATION_TYPE: Logarithmic reduction in organism count, S. aureus ATCC 6538

{"SMILES": "CCCCCCCCCNc1nc(-c2ccccn2)nc(C)c1C(C)C", "RESULT": "≦1 log"}
{"SMILES": "CCCCCCCCCNc1cc(C)nc(-c2ccccn2)n1", "RESULT": "1–2 log"}
{"SMILES": "CCCCCCCCCCCNc1cc(C)nc(-c2ccccn2)n1", "RESULT": ">3 log"}
{"SMILES": "CCCCCCCCCCCCNc1cc(C)nc(-c2ccccn2)n1", "RESULT": "2 log"}
{"SMILES": "CCCCCCCCCNc1cc(C(C)C)nc(-c2ccccn2)n1", "RESULT": "≦1 log"}
{"SMILES": "Cc1cc(NCCCCCCCCCCCCN)nc(-c2ccccn2)n1", "RESULT": "2–3 log"}
{"SMILES": "CCCCCCCCNc1nc(-c2ccccn2)nc(C)c1CC", "RESULT": "<1 log"}
{"SMILES": "CCCCCCCCCCCNc1cc(C(C)C)nc(-c2ccccn2)n1", "RESULT": "1 log"}
{"SMILES": "CCCCCCCCNc1nc(-c2ccccn2)nc(C)c1C(C)C", "RESULT": "1–2 log"}
